Tested on: 429239-143-T-J1-PDC complex spheroid viability
protocol-details: Anticancer human tumor 429239-143-T-J1-PDC patient-derived small cell lung carcinoma cell line growth inhibition [POLQ]
run-parameters: second compound 0.316 µM; first compound 0.0316 µM; active compounds read low
Description: Multicellular complex tumor spheroid response to Polymerase (POL) inhibitors (novobiocin, ART-558, RP6685) in combination with a variety of drugs and investigational agents in selected tumor cell lines The POL inhibitors (novobiocin, ART-558, and RP6685) were evaluated both individually and in combination with standard of care and investigational anticancer small molecules within a complex spheroid model of solid tumors. . […]

>  <compound>
Nc1ccn(C2OC(CO)C(O)C2(F)F)c(=O)n1 (stereo not given) + Nc1ccc(C#CCN(C(=O)Cc2ncc(C(F)(F)F)cc2C(F)(F)F)c2ccc(F)cc2)nn1

>  <target-of-assay>
429239-143-T-J1-PDC complex spheroid viability

>  <viability, T/C, %>
75

$$$$
>  <compound>
COc1cc(C2c3cc4c(cc3C(OC3OC5COC(C)OC5C(O)C3O)C3COC(=O)C23)OCO4)cc(OC)c1O (stereo not given) + Nc1ccc(C#CCN(C(=O)Cc2ncc(C(F)(F)F)cc2C(F)(F)F)c2ccc(F)cc2)nn1

>  <target-of-assay>
429239-143-T-J1-PDC complex spheroid viability

>  <viability, T/C, %>
104

$$$$
>  <compound>
C#Cc1c(F)ccc2cc(O)cc(-c3ncc4c(N5CC6CCC(C5)N6)nc(OCC56CCCN5CC(F)C6)nc4c3F)c12 (stereo not given) + Cc1cccc(N(C)C(=O)C2C(O)CCN2c2nc(C)cc(C(F)(F)F)c2C#N)c1

>  <target-of-assay>
429239-143-T-J1-PDC complex spheroid viability

>  <viability, T/C, %>
99.6

$$$$
>  <compound>
CC1COCCN1c1cc(C2(S(C)(=N)=O)CC2)nc(-c2ccnc3[nH]ccc23)n1 (stereo not given) + Nc1ccc(C#CCN(C(=O)Cc2ncc(C(F)(F)F)cc2C(F)(F)F)c2ccc(F)cc2)nn1

>  <target-of-assay>
429239-143-T-J1-PDC complex spheroid viability

>  <viability, T/C, %>
99.9

$$$$
>  <compound>
C#Cc1c(F)ccc2cc(O)cc(-c3ncc4c(N5CC6CCC(C5)N6)nc(OCC56CCCN5CC(F)C6)nc4c3F)c12 (stereo not given) + Nc1ccc(C#CCN(C(=O)Cc2ncc(C(F)(F)F)cc2C(F)(F)F)c2ccc(F)cc2)nn1

>  <target-of-assay>
429239-143-T-J1-PDC complex spheroid viability

>  <viability, T/C, %>
106

$$$$

###

Here, each record is paired with measured viability, T/C data.
Tested on: 429239-143-T-J1-PDC complex spheroid viability
protocol-details: Anticancer human tumor 429239-143-T-J1-PDC cell line growth inhibition [POLQ];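 note: luminescence signal used as surrogate measure of viable cells; spheroids exposed to compounds for seven days before readout; 100% = DMSO vehicle control viability as luminescence relative to vehicle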
run-parameters: second compound 1 µM; first compound 1 µM; active compounds read low

>  <molecule>
O=C(c1cc(Cc2n[nH]c(=O)c3ccccc23)ccc1F)N1CCN(C(=O)C2CC2)CC1 + COC1C(OC(N)=O)C(O)C(Oc2ccc3c(O)c(NC(=O)c4ccc(O)c(CC=C(C)C)c4)c(=O)oc3c2C)OC1(C)C

>  <target-of-assay>
429239-143-T-J1-PDC complex spheroid viability

>  <readout-units>
%

>  <viability, T/C>
78.5

$$$$
>  <molecule>
COc1cc(C2c3cc4c(cc3C(OC3OC5COC(C)OC5C(O)C3O)C3COC(=O)C23)OCO4)cc(OC)c1O (stereo not drawn) + COC1C(OC(N)=O)C(O)C(Oc2ccc3c(O)c(NC(=O)c4ccc(O)c(CC=C(C)C)c4)c(=O)oc3c2C)OC1(C)C

>  <target-of-assay>
429239-143-T-J1-PDC complex spheroid viability

>  <readout-units>
%

>  <viability, T/C>
18.6

$$$$
>  <molecule>
CNCc1ccc(-c2[nH]c3cc(F)cc4c3c2CCNC4=O)cc1 + Cc1cccc(N(C)C(=O)C2C(O)CCN2c2nc(C)cc(C(F)(F)F)c2C#N)c1

>  <target-of-assay>
429239-143-T-J1-PDC complex spheroid viability

>  <readout-units>
%

>  <viability, T/C>
66.2

$$$$

Origin of measurements: PubChem BioAssay AID1963845
